system: Crude diglycosidase; assay: Examination of temperature in the conversion into isoflavone aglycons by diglycosidase using soybean materials; assay type: biochemical, Penicillium multicolor IAM7153; parameters: concentration or dose not given beside the values; settings: 65° C., heat treatment of enzyme no, reaction time 3 h
quantity-name: Decomposition efficiency of daidzin family in defatted soybean

CC(=O)OC[C@H]1O[C@@H](Oc2ccc3c(=O)c(-c4ccc(O)cc4)coc3c2)[C@H](O)[C@@H](O)[C@@H]1O; not detected
O=c1c(-c2ccc(O)cc2)coc2cc(O)ccc12; 58.4%
O=C(O)CC(=O)OC[C@H]1O[C@@H](Oc2ccc3c(=O)c(-c4ccc(O)cc4)coc3c2)[C@H](O)[C@@H](O)[C@@H]1O; 41.6%
O=c1c(-c2ccc(O)cc2)coc2cc(O[C@@H]3O[C@H](CO)[C@@H](O)[C@H](O)[C@H]3O)ccc12; not detected

All values here come from patent US7118895B2.
